The origin of these recorded values is paper PMC8148378.

In this section we review reported MIC values for a set of compounds.
- System: P. aeruginosa ESBL 1 DSM-24600
- ASSAY_METHOD_TEXT: MIC determination, larger panel
- Type: cell-based
- MEASUREMENT_SETUP: Pseudomonas aeruginosa, DSM24600, read-out: MIC P. aeruginosa ESBL 1
OUTCOME_MEASURE: MIC (µg/mL)

compound=CC(C)Oc1c(NC(=O)c2ccc(NC(=O)[C@H](CC(N)=O)NC(=O)c3ccc(NC(=O)c4ccc(C#N)cc4)cc3)cc2)ccc(C(=O)Nc2ccc(C(=O)O)cc2)c1O experimental_target="P. aeruginosa ESBL 1 DSM-24600" unit_name=µg/mL comparison_symbol== assay_result=4
compound="O=C(O)c1cn(C2CC2)c2cc(N3CCNCC3)c(F)cc2c1=O [ciprofloxacin, reference compound]" experimental_target="P. aeruginosa ESBL 1 DSM-24600" unit_name=µg/mL comparison_symbol== assay_result=8
compound=C/C(=C\c1ccc(O)cc1)C(=O)Nc1ccc(C(=O)N[C@@H](CC(N)=O)C(=O)Nc2ccc(C(=O)Nc3ccc(C(=O)Nc4ccc(C(=O)O)cc4)c(O)c3OC(C)C)cc2)cc1 experimental_target="P. aeruginosa ESBL 1 DSM-24600" unit_name=µg/mL comparison_symbol=> assay_result=64
